Target: UniProtKB P28476
Sequence (P28476 21-465): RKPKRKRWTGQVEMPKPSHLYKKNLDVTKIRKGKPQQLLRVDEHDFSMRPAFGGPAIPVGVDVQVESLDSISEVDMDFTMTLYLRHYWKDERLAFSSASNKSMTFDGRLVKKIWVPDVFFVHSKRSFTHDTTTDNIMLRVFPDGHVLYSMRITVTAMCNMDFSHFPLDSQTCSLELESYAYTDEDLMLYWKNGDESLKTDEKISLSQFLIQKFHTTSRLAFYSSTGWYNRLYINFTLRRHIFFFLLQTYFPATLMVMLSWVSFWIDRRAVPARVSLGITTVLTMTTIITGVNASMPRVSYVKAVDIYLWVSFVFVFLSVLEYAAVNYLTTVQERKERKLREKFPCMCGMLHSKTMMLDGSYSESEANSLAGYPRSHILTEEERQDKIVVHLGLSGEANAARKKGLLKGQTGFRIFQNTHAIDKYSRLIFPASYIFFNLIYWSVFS
Test: Whole-cell patch-clamp on CHO cells expressing homomeric ρ2 GABAC receptors
Measure name: IC50 (µM)

>  <Smiles>
O=C1CN=C(c2ccccc2)c2cc(/N=N/c3ccc(S(=O)(=O)O)cc3)ccc2N1

>  <Measure name>
IC50

>  <Measured number>
128

$$$$
